# system tested: 5-HT2C (Homo sapiens, UniProt P28335)
# Construct: host or cells: HEK293
# Sequence (P28335 33-458, species assumed): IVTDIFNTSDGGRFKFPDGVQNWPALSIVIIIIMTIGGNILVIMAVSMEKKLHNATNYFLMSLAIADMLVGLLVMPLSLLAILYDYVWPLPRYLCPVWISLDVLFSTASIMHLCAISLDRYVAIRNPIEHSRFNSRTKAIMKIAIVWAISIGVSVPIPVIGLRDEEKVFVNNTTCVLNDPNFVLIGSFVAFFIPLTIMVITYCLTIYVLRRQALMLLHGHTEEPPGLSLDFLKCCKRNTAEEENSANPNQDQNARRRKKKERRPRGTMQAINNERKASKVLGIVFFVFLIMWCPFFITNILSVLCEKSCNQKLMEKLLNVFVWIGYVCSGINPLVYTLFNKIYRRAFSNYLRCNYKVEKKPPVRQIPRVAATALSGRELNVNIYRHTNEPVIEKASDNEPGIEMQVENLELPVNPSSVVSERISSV
# assay procedure: FLIPR Ca2+ flux functional assay, 5-HT2C (HEK293)
# Type: cell-based
# cond: HEK293, agonist activity, HEK293 cells expressing 5-HT2C
assay readout: Emax (%)

molecule	assay readout	reading
COc1cc(F)c2[nH]nc(CCN3CCC3)c2c1 [Example A53]	Emax	48
COc1c(F)ccc2[nH]nc(CCN(C)C(C)C)c12 [Example A3]	Emax	80
CCN(C)CCc1n[nH]c2ccc(OC)cc12 [Example P-51]	Emax	24.6
COc1cc(F)c2[nH]nc(CCN(C)C(C)C)c2c1 [Example A52]	Emax	0
COc1cc2c(CCN(C)C(C)C)n[nH]c2cc1F [Example A7]	Emax	67
COc1ccc2[nH]nc(CCN(C)C)c2c1 [Example P-8]	Emax	72.4
CCN(C)CCc1n[nH]c2ccc(F)cc12 [Example A18]	Emax	79
CCN(CC)CCc1n[nH]c2cccc(O)c12 [Example P-43]	Emax	28.8
CCN(C)CCc1n[nH]c2cc(F)cc(OC)c12 [Example A39]	Emax	78
Fc1ccc2[nH]nc(CCN3CCC3)c2c1F [Example A72]	Emax	37
CCN(C)CCc1n[nH]c2ccc(F)c(OC)c12 [Example A2]	Emax	86
